The values you see were collected from ChEMBL document CHEMBL1926544.

# protocol-summary: Half life in Sprague-Dawley rat intestinal homogenate at pH 6.5 by LC/MS analysis
# Format: ADME, tissue-based, Intestine
Quick reference: half-life of the listed items.
Form entry: value (h) — number only.

These solved cases illustrate the format of a correct answer.
Record COC(=O)[C@H](N)Cc1ccc(O[P@@]2(=O)CO[C@@H](Cn3ccc(N)nc3=O)CO2)cc1 , field half-life: 3.5

So for CC(C)(C)NC(=O)[C@H](N)Cc1ccc(O[P@]2(=O)CO[C@@H](Cn3ccc(N)nc3=O)CO2)cc1 , the logged half-life turned out to be 3.85

// field: half-life; key: CC(C)CNC(=O)[C@@H](N)Cc1ccc(O[P@@]2(=O)CO[C@@H](Cn3cnc4c(N)ncnc43)CO2)cc1 ; value = 12.8

Consider COC(=O)[C@H](N)Cc1ccc(O[P@]2(=O)CO[C@@H](Cn3ccc(N)nc3=O)CO2)cc1 . Its measured half-life is 1.2

According to the records, this compound CC(C)CNC(=O)[C@@H](N)Cc1ccc(O[P@]2(=O)CO[C@@H](Cn3cnc4c(N)ncnc43)CO2)cc1 displays half-life of 1.9

The record that follows has no half-life shown yet.
Item: CC(C)(C)NC(=O)[C@H](N)Cc1ccc(O[P@@]2(=O)CO[C@@H](Cn3ccc(N)nc3=O)CO2)cc1 | half-life: 28.9
